The measurements presented in this section are drawn from PubChem BioAssay.

- target.under.test: Protein kinase 7 (PK7), Plasmodium falciparum 3D7 (PF3D7_0213400) (UniProt Q7YTF7)
- Sequence (Q7YTF7 1-343): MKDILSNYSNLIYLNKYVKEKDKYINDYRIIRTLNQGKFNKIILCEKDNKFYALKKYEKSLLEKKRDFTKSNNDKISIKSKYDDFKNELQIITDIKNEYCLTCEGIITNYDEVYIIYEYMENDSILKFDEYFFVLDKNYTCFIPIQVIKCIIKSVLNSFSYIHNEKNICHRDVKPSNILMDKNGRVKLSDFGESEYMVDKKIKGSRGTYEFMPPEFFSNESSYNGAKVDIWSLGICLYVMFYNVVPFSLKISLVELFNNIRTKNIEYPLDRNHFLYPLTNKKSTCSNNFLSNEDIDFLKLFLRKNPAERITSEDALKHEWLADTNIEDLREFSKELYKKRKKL
- experimental.protocol: inhibition of Plasmodium PK7 catalytic activity – biochemical, TCAMS antimalarial set, Kinase-Glo luminescence (AID 1159587)
- condition.details: recombinant PfPK7, Kinase-Glo ATP depletion luminescence
Calls of active or inactive are those of the source. No rule for the calls is given here.
readout.type: outcome

In [3]: df
Out[3]:
                         structure_notation  readout_type    result
0           CCCCCCn1ccc2c3c(N)nc(N)nc3ccc21       outcome  inactive
1  O=C(Nc1ccc(-c2nc3cc4ccccc4cc3[nH]2)cc1)c1cccc(Br)c1       outcome  inactive
2                Nc1nccc2ccc(OC3CCCCC3)cc12       outcome  inactive
